# Lookup of reported activity at 20 min, 10 μM keyed by entry
Test system: CYP enzymes of liver microsomes that oxidise (demethylate) AAI to AAIa
protocol-description: Effect of CYP inhibitors on AAI oxidation to AAIa by human liver microsomes
Format: in vitro ADME
condition: pH 7.4, probe AAI (10 μM), inhibitor 10 μM equimolar to AAI (10 μM), 0.1 nmol CYP, mean ± SD, n = 3, NI = no inhibition, read-out: AAIa Formation (% of Control without Inhibitor) Human Microsomes

molecule	units-text	result-comparator	activity at 20 min, 10 μM
Cc1nc2c([nH]1)c(=O)n(C)c(=O)n2Cc1ccco1	%	=	75
O=c1cc(-c2ccccc2)oc2c1ccc1ccccc12	%	=	89
Nc1ccc(S(=O)(=O)Nc2ccnn2-c2ccccc2)cc1	%	>	100
CCN(CC)C(=S)S [DDTC, diethyldithiocarbamate]	%	=	96
C=C[C@H]1C[N@@]2CC[C@H]1C[C@@H]2[C@@H](O)c1ccnc2ccc(OC)cc12	%	>	100
